Where do the numbers come from? From a protein production outcome set (Wang et al. 2014).

- protocol-notes: label from the status in PepcDB records
recorded-endpoint: protein production

protein production recorded for this sequence, MQTPSKKYVVDIWSDFVCPWCWIAKRRFENALNRSGMQDDVQVNVRAYRLAANQAPEPMIGALKRKLGNPASADSMMSTVSKYGRADGLDYRFDTMMFGDTADAHILVKAVEDTAVKKRLVEALYEQSTSHGRSLFDRSSLEAIAREVGVSDESIQLAWSSVELRNEMKDDESFAAQLGSGVPLFVFDSSFSVSGAQPDAVFLEALNKMVANSNPEDSSMMGQVCSIDGCKV , is not failed

protein production recorded for this sequence, MSGDYRITLEELRYISVFHSITGVTAYRCIVDEENNRLIFLVSEGEAGRAIGRGGRLIKLLREALGKNIEVVEYSSDLERIVKNLFPGVKIESINVRERNGVKQVVIKVSEDDKGAAIGKGGKNVKRARLVLSKLFGVEKVVIR , is not failed
